experiment: Unbound fraction
Type: in vivo, human
run conditions: human, plasma, oral, 300 mg, median value of individual mean fu%, healthy subjects matched for severe; plasma 6 and 12 hours postdose
quantity measured: fraction unbound
Would you mind answering with just the numeric figure?

Query block: Please give the documented fraction unbound of "CCc1cc2c(cc1N1CCC(N3CCOCC3)CC1)C(C)(C)c1[nH]c3cc(C#N)ccc3c1C2=O"
Result block: 0.0014

---

experiment: Unbound fraction
Type: in vivo, human
run conditions: human, plasma, oral, 300 mg, median value of individual mean fu%, healthy subjects matched for moderate; plasma 6 and 12 hours postdose
quantity measured: fraction unbound
Note: the reply should be a number with no unit written.

Query block: State its fraction unbound: "CCc1cc2c(cc1N1CCC(N3CCOCC3)CC1)C(C)(C)c1[nH]c3cc(C#N)ccc3c1C2=O"
Result block: 0.00206
